B1: CPEB3 Ribozyme (parent)
chain: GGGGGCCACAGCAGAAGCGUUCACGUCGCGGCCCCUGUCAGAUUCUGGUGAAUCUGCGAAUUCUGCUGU

Variants of: B1
methodNotes: self-cleavage, relative activity (ratio to wild type); higher = more cleavage; co-transcriptional
experimentalReadout: self-cleavage

G5U G65A | 0.187
U21A U61G | 0.94
C35U U55G | 0.653
G5U C35G | 0.08
U21G C33G | 0.215
G14A G50A | 0.778
A16G G56C | 0.458
G25U C34G | 0.196
G19U G41C | 0.16
U21G U55C | 0.358
G5C U46A | 0.265
G19C C45G | 0.119
A42G U49A | 0.938
U21C C66U | 0.887
G5U A16G | 0.14
C32A C39U | 0.388
G25U C45U | 0.156
G2A G28A | 0.0492
G3C U44G | 0.054
C39A U49A | 0.902
G3U A15C | 0.0817
C33U A40C | 0.619
C24G U55G | 0.191
C7U G48U | 0.966
U38A U64C | 0.776
A8G C24A | 0.446
G17U C35A | 0.214
G25A U36C | 0.292
C24A A60G | 0.35
C45G U62C | 0.798
C22A G41C | 0.138
G11U A23C | 0.685
C33A G48U | 0.929
A13G A51C | 0.874
C35A U49A | 0.303
G41U U53G | 0.604
C57G U61C | 0.377
G4C U46C | 0.619
G37C C45A | 0.168
G37U G41C | 0.139
G1A C34A | 0.111
A23G C34U | 0.932
A40C G58U | 0.727
G2A A51C | 0.0717
C12A C66A | 0.686
G5U A13G | 0.271
